Listing: TGI of selected compounds
# Test system: SF-539 CNS
# ASSAY_NAME: NCI tumour cell line growth inhibition, 48 h

COMPOUND	VALUE_UNIT	COMPARISON_SYMBOL	TGI
CC(C)=C1CCC(CN2CCOCC2)C1=O (stereo not given)	µM	=	31.9
C[n+]1cn(-c2nc3ccccc3nc2[N-]S(=O)(=O)c2ccccc2)c2ccccc21	µM	>	100
O=C1C=C(Nc2ccc(S(=O)(=O)Nc3ncccn3)cc2)c2ccccc2C1=O	µM	=	58.4
c1cc[c]([Sn]([O]c2cccc3cccnc23)([O]c2cccc3cccnc23)[c]2ccccc2)cc1	µM	=	1.32
CCOC(=O)/C=C(/C(=O)OCC)n1ccc(=O)n(Cc2cnnn2CCCCOC(C)=O)c1=O	µM	>	100
O=C(Nc1ccc2cc3ccccc3cc2c1)c1cc2c(cc1Cl)Sc1nccn1S2(=O)=O	µM	=	33.8
CC(=O)NC1=C(N)C(=O)c2ccccc2C1=O	µM	>	100
C[C@H](NC(=O)c1c(C(F)F)nn(C)c1Oc1cccc(C(F)(F)F)c1)c1ccc(C(=O)O)cc1	µM	>	100
OC(COc1ccccc1)CN1CCCCC1 (stereo not given)	µM	>	100
C=CCn1c(=N)/c(=C(\N)O)s/c1=C1/SC(=S)N(c2ccc(C)cc2)C1=O	µM	>	100
